# subject of test: binding of His-XIAP(BIR2)-avi fusion protein to GST-RIPK2 fusion protein (RIPK2/XIAP) (Homo sapiens, UniProt O43353)
# Construct: made in house; host or cells: baculovirus infected Sf9 cells
# Sequence (O43353 1-310 limits assumed): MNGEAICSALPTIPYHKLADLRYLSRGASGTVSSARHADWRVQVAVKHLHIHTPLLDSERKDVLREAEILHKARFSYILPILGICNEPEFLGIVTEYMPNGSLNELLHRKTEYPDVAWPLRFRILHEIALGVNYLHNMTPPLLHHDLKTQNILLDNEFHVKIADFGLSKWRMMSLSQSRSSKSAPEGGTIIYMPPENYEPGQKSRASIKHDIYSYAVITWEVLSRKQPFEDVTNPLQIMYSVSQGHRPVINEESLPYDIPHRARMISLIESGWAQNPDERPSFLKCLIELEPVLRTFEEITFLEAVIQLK
# measurement notes: RIPK2-XIAP binding competition PPI assay (TR-FRET)
# details: RIPK2/XIAP binding competition PPI assay, Amax; read-out: PPI Amax bin
Catalogue of molecules with associated Emax

>  <molecule>
CC(F)(CO)COc1cc2ncc(-c3cc(F)c(N)nc3F)n2cc1S(=O)(=O)C(C)(C)C (stereo not shown) [Example 204]

>  <Emax>
> 80%

$$$$
>  <molecule>
CCS(=O)(=O)Nc1cc(-c2cnc3cc(OCCO)c(S(=O)(=O)C(C)(C)C)cn23)cc(F)c1OC

>  <Emax>
> 80%

$$$$
>  <molecule>
CC(C)(C)S(=O)(=O)c1cn2c(-c3cc(Cl)c(N)nc3F)cnc2cc1OCCO

>  <Emax>
> 80%

$$$$
>  <molecule>
COc1cc2ncc(-c3ccc4sc(N)nc4c3)n2cc1S(=O)(=O)C(C)(C)C

>  <Emax>
30 to 55%

$$$$
>  <molecule>
CC(C)(C)S(=O)(=O)c1cn2c(-c3cc(F)c(N)nc3F)cnc2cc1OCCn1cccn1

>  <Emax>
> 80%

$$$$
>  <molecule>
COc1cc2ncc(-c3cc(F)c(OC)c(NS(=O)(=O)c4cnn(C)c4)c3)n2cc1C1(F)CCNCC1

>  <Emax>
> 80%

$$$$
>  <molecule>
COc1cc2ncc(-c3cc(F)nc(NCCCO)c3)n2cc1C(F)(F)F

>  <Emax>
< 30%

$$$$
>  <molecule>
COc1cc2ncc(-c3cc(F)c(N)nc3F)n2cc1S(=O)(=O)c1ccnn1C

>  <Emax>
> 80%

$$$$
>  <molecule>
COc1cc2ncc(-c3cc(F)c(OC)c(NCc4cnn(C)c4)c3)n2cc1S(=O)(=O)C(C)(C)C

>  <Emax>
55 to 80%

$$$$
>  <molecule>
Cn1cc(COc2cc3ncc(-c4cc(F)c(N)nc4F)n3cc2S(=O)(=O)C(C)(C)C)cn1

>  <Emax>
> 80%

$$$$
>  <molecule>
CC(C)(C)S(=O)(=O)c1cc2c(-c3cc4cc[nH]c4nc3F)cnn2cc1OCCO

>  <Emax>
> 80%

$$$$
>  <molecule>
CC(C)(C)C(C)(O)c1cn2c(-c3cc(F)c(N)nc3F)cnc2cc1OCCO (single isomer, unassigned) [Example 295]

>  <Emax>
> 80%

$$$$
>  <molecule>
CN1CCN(CCOc2cc3ncc(-c4cc(F)c(N)nc4F)n3cc2S(=O)(=O)C(C)(C)C)CC1

>  <Emax>
> 80%

$$$$
>  <molecule>
CC(C)(C)S(=O)(=O)c1cc2c(-c3cc(Cl)c(N)nc3F)cnn2cc1OCCO

>  <Emax>
> 80%

$$$$
>  <molecule>
COc1cc2ncc(-c3cnc4c(c3)CCCN4)n2cc1S(=O)(=O)C(C)(C)C

>  <Emax>
30 to 55%

$$$$
>  <molecule>
CC(C)(CO)COc1cc2ncc(-c3cc(F)c(N)nc3F)n2cc1S(=O)(=O)C(C)(C)C

>  <Emax>
> 80%

$$$$
>  <molecule>
COc1cc2ncc(-c3cnc4nc(N)ccc4c3)n2cc1S(=O)(=O)C(C)(C)C

>  <Emax>
30 to 55%

$$$$
>  <molecule>
COc1cn2ncc(-c3cc(F)c(N)nc3F)c2nc1N1C(=O)OCC1(C)C

>  <Emax>
55 to 80%

$$$$
>  <molecule>
COc1cc2ncc(-c3cc(F)c(OC)c(NS(=O)(=O)c4cn(C)nc4C)c3)n2cc1S(=O)(=O)C(C)(C)C

>  <Emax>
> 80%

$$$$
>  <molecule>
COc1cc2ncc(-c3cc(F)c(OC)c(NS(=O)(=O)c4cn[nH]c4)c3)n2cc1C(F)(F)F

>  <Emax>
> 80%

$$$$
>  <molecule>
COc1cc2ncc(-c3cc(NS(=O)(=O)c4cnn(C)c4)c(OC)c(OC)c3)n2cc1S(=O)(=O)C(C)(C)C

>  <Emax>
> 80%

$$$$
>  <molecule>
COc1cc2ncc(-c3cc(F)c4nc(C)cn4c3)n2cc1S(=O)(=O)C(C)(C)C

>  <Emax>
< 30%

$$$$
>  <molecule>
CN(C)C(=O)c1cc2ncc(-c3cc(F)c(N)nc3F)n2cc1S(=O)(=O)C(C)(C)C

>  <Emax>
55 to 80%

$$$$
>  <molecule>
CC(C)(C)S(=O)(=O)c1cn2c(-c3cc(F)c(N)nc3F)cnc2cc1OCC1(CO)COC1

>  <Emax>
> 80%

$$$$
>  <molecule>
CC(C)(C)S(=O)(=O)c1cn2c(-c3ccc4[nH]cnc4c3)cnc2cc1OCCO

>  <Emax>
< 30%

$$$$
>  <molecule>
COc1c(F)cc(-c2cnn3cc(OCCO)c(S(=O)(=O)C(C)(C)C)cc23)cc1NS(=O)(=O)c1cnn(C)c1

>  <Emax>
> 80%

$$$$
>  <molecule>
COc1cc2ncc(-c3ccc4nc(N)sc4c3)n2cc1S(=O)(=O)C(C)(C)C

>  <Emax>
< 30%

$$$$
>  <molecule>
CC(C)(C)S(=O)(=O)c1cn2c(-c3cc(F)c(N)nc3F)cnc2cc1OC[C@H]1C[C@@H](O)C1

>  <Emax>
> 80%

$$$$
>  <molecule>
COc1cc2ncc(-c3cnc4c(c3)OCC4O)n2cc1S(=O)(=O)C(C)(C)C (stereo not shown)

>  <Emax>
30 to 55%

$$$$
>  <molecule>
COc1c(F)cc(-c2cnc3cc(OC[C@@H](C)CO)c(S(=O)(=O)C(C)(C)C)cn23)cc1NS(C)(=O)=O

>  <Emax>
55 to 80%

$$$$
>  <molecule>
COc1cc2ncc(-c3cccc(NS(=O)(=O)C4CCC4)c3)n2cc1S(=O)(=O)C(C)(C)C

>  <Emax>
> 80%

$$$$
